Source: ChEMBL document CHEMBL1201862

- System: OVCAR-8
- PROTOCOL_NOTES: NCI tumour cell line growth inhibition, 48 h
Activity calls are given as the source filed them. Rule as the data show it: active = GI50 up to about 1.1 µM and inactive = higher.
Provide the reported GI50 of each item.

I would be grateful if you could share the reported GI50 for CCOC(=O)C(c1c[nH]c2ccccc12)(c1c[nH]c2ccccc12)c1c[nH]c2ccccc12 .
36.2 µM (inactive)

I would be grateful if you could share the reported GI50 for CCSC1=N/C(=C\c2ccco2)C(NN)=N1 .
> 50 µM (inactive)

I would be grateful if you could share the reported GI50 for COc1cc(C2=C(C)[C@@H]3CN(CC=C3c3ccc(Cl)cc3)C2)c(S(=O)(=O)O)cc1OC .
> 100 µM (inactive)

I would be grateful if you could share the reported GI50 for C[N+]1(C)[C@@H]2CC[C@H]1C[C@@H](OC(=O)C(CO)c1ccccc1)C2 (some centres undefined) [ATROPINE METHYLBROMIDE] .
> 100 µM (inactive)

I would be grateful if you could share the reported GI50 for CC(C)CCCC(C)[C@H]1CC[C@H]2[C@@H]3CC[C@H]4C[C@@H](CCC=C(c5cc(Cl)c(O)c(C(=O)OC(C)C)c5)c5cc(Cl)c(O)c(C(=O)OC(C)C)c5)CC[C@]4(C)[C@H]3CC[C@]12C (some centres undefined) .
> 50 µM (inactive)

I would be grateful if you could share the reported GI50 for COc1cccc(C23CCCC(C2)NCC3Br)c1OC (centres undefined) .
11.2 µM (inactive)

I would be grateful if you could share the reported GI50 for O=[N+]([O-])c1cccc2nnccc12 .
31.9 µM (inactive)

I would be grateful if you could share the reported GI50 for CC1CCC2(OC1)OC1CC3C4CC=C5CC(OC6OC(CO)C(OC7OC(C)C(OC8OC(C)C(O)C(O)C8O)C(O)C7O)C(O)C6OC6OC(C)C(O)C(O)C6O)CCC5(C)C4CCC3(C)C1C2C (centres undefined) .
0.326 µM (active)

I would be grateful if you could share the reported GI50 for CC1=C(/C=C/C(=O)O)C(C)(C)CCC1 .
> 100 µM (inactive)

I would be grateful if you could share the reported GI50 for C[N+](C)(C)CC(=O)N/N=C(/Cc1nc2ccc([N+](=O)[O-])cc2nc1O)C(=O)Nc1cc(C(F)(F)F)ccc1Cl .
> 100 µM (inactive)

I would be grateful if you could share the reported GI50 for CCn1nc(C)c2c1C(=O)NC(C)C(=O)N2 (centres undefined) .
> 100 µM (inactive)

I would be grateful if you could share the reported GI50 for O=C(O)c1cc(C(=O)O)cc(N2C(=O)c3ccccc3C2=O)c1 .
> 100 µM (inactive)

I would be grateful if you could share the reported GI50 for CCN(CC)C(=S)SS(=O)(=O)c1ccccc1[N+](=O)[O-] .
22.9 µM (inactive)

I would be grateful if you could share the reported GI50 for O=C1CCCC2COc3ccc(O)c1c32 (centres undefined) .
> 100 µM (inactive)

I would be grateful if you could share the reported GI50 for COc1cccc(/N=N/C(=N/NC(=O)c2cc(Cl)ccc2O)c2ccc(N(CCC#N)CCC#N)cc2C)c1 .
16.9 µM (inactive)

I would be grateful if you could share the reported GI50 for O=c1/c(=C/c2cccc([N+](=O)[O-])c2)sc2nc3ccccc3n12 .
> 100 µM (inactive)

I would be grateful if you could share the reported GI50 for Nc1ncnc2c1cnn2COCC(O)CO (centres undefined) .
> 100 µM (inactive)

I would be grateful if you could share the reported GI50 for COc1cc(/C=C\c2ccc(Cl)cc2)cc(OC)c1OC .
0.363 µM (active)

I would be grateful if you could share the reported GI50 for CCOP(=O)(OCC)/C(C#N)=C/c1cn(C)cn1 .
> 100 µM (inactive)
